targetOrTestSystem: T1, Human PCSK9 Alexa Fluor 647 (human, UniProt Q8NBP7 31-692, limits assumed, Alexa Fluor 647 label (site not stated))
T1 construct: Labelled tracer of the TR-FRET assay, 16 nM stock; also called proprotein convertase subtilisin/kexin type 9
T1 sequence (Q8NBP7 31-692 limits assumed): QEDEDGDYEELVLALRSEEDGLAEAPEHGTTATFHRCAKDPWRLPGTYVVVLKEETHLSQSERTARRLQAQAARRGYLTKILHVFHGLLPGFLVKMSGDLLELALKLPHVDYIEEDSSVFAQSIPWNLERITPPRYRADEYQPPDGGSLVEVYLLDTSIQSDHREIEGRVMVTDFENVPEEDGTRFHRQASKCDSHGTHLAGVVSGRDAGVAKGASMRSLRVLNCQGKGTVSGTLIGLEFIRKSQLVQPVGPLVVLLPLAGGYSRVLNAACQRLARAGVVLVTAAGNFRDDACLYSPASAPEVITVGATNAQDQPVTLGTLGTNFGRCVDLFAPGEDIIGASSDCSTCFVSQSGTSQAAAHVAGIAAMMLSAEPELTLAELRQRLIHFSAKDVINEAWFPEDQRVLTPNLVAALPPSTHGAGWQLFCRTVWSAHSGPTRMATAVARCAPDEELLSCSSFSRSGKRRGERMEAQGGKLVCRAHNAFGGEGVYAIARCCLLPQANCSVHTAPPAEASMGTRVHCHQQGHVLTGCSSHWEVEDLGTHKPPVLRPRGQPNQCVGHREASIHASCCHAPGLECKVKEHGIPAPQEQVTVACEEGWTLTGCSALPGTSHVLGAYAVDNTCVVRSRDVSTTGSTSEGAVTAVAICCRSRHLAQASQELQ
procedureText: TR-FRET competition: PCSK9-Alexa Fluor 647 vs LDLR ECD-Eu kryptate
Bridge positions count the residues as written; N and C are the ends. Square brackets hold non-standard residues; d marks the D form. Phe(3,4-Cl2) = N[C@@H](Cc1ccc(Cl)c(Cl)c1)C(=O)O; Bip = N[C@@H](Cc1ccc(-c2ccccc2)cc1)C(=O)O; Phe(4-Cl) = N[C@@H](Cc1ccc(Cl)cc1)C(=O)O; NMeF = CN[C@@H](Cc1ccccc1)C(=O)O; NMeA = CN[C@@H](C)C(=O)O
readoutName: IC50 (nM)
Give just the numeric value; nM need not be written.

Given the entry {CH2CO}-FVPTTF[NMeA][Phe(4-Cl)][NMeA]PAPC-NH2 (thioether N-13; SMILES CC(C)[C@@H]1NC(=O)[C@H](Cc2ccccc2)NC(=O)CSC[C@@H](C(N)=O)NC(=O)[C@@H]2CCCN2C(=O)[C@H](C)NC(=O)[C@@H]2CCCN2C(=O)[C@H](C)N(C)C(=O)[C@H](Cc2ccc(Cl)cc2)NC(=O)[C@H](C)N(C)C(=O)[C@H](Cc2ccccc2)NC(=O)[C@H]([C@@H](C)O)NC(=O)[C@H]([C@@H](C)O)NC(=O)[C@@H]2CCCN2C1=O, also called 2-1; Ex. No. 2-1) [Ac*-F-V-P-T-T-F-(N-Me)A-(p-Cl)F-(N-Me)A-P-A-P-C*-NH2] , report its measured IC50.
11.5

Using the record for {CH2CO}-FVPTTF[NMeA][Bip][NMeA]EAPC-NHEt (thioether N-13; SMILES CCNC(=O)[C@@H]1CSCC(=O)N[C@@H](Cc2ccccc2)C(=O)N[C@@H](C(C)C)C(=O)N2CCC[C@H]2C(=O)N[C@@H]([C@@H](C)O)C(=O)N[C@@H]([C@@H](C)O)C(=O)N[C@@H](Cc2ccccc2)C(=O)N(C)[C@@H](C)C(=O)N[C@@H](Cc2ccc(-c3ccccc3)cc2)C(=O)N(C)[C@@H](C)C(=O)N[C@@H](CCC(=O)O)C(=O)N[C@@H](C)C(=O)N2CCC[C@H]2C(=O)N1, also called 3-2; Ex. No. 3-2) [Ac*-F-V-P-T-T-F-(N-Me)A-B-(N-Me)A-E-A-P-C*-NHEt] , report its IC50.
4.2

Which measured IC50 value corresponds to {CH2CO}-FVPTTA[NMeF][Bip][NMeA]EAPCG-NH2 (thioether N-13; not fully specified, The three-letter form of the same entry prints L-Arg at position 11 where the one-letter form prints A; also called 1-21; Ex. No. 1-21) [Ac*-F-V-P-T-T-A-(N-Me)F-B-(N-Me)A-E-A-P-C*-G-NH2] ?
7.2

Entry {CH2CO}-FVPTTF[NMeA][Phe(4-Cl)][NMeA]DAPC-NH2 (thioether N-13; SMILES CC(C)[C@@H]1NC(=O)[C@H](Cc2ccccc2)NC(=O)CSC[C@@H](C(N)=O)NC(=O)[C@@H]2CCCN2C(=O)[C@H](C)NC(=O)[C@H](CC(=O)O)NC(=O)[C@H](C)N(C)C(=O)[C@H](Cc2ccc(Cl)cc2)NC(=O)[C@H](C)N(C)C(=O)[C@H](Cc2ccccc2)NC(=O)[C@H]([C@@H](C)O)NC(=O)[C@H]([C@@H](C)O)NC(=O)[C@@H]2CCCN2C1=O, also called 2-2; Ex. No. 2-2) [Ac*-F-V-P-T-T-F-(N-Me)A-(p-Cl)F-(N-Me)A-D-A-P-C*-NH2] : reported IC50 = ?
0.4

Please report the recorded IC50 for FVSTTXFXAESPCG (not fully specified; N-terminal acetyl (Ac*) joined by a sulfide bond to the side chain of Cys13 (cyclic); 6: L-Bip; 7: L-(N-Me)Phe; 8: L-Bip; 9: L-(N-Me)Ala; C-terminal amide (NH2), also called 1-13; Ex. No. 1-13) [Ac*-F-V-S-T-T-B-(N-Me)F-B-(N-Me)A-E-S-P-C*-G-NH2] .
7.8

I am curious: what IC50 value has been reported for {CH2CO}-FVSTT[Bip][NMeA][Phe(3,4-Cl2)][NMeA]DRPCG-NH2 (thioether N-13; SMILES CC(C)[C@@H]1NC(=O)[C@H](Cc2ccccc2)NC(=O)CSC[C@@H](C(=O)NCC(N)=O)NC(=O)[C@@H]2CCCN2C(=O)[C@H](CCCNC(=N)N)NC(=O)[C@H](CC(=O)O)NC(=O)[C@H](C)N(C)C(=O)[C@H](Cc2ccc(Cl)c(Cl)c2)NC(=O)[C@H](C)N(C)C(=O)[C@H](Cc2ccc(-c3ccccc3)cc2)NC(=O)[C@H]([C@@H](C)O)NC(=O)[C@H]([C@@H](C)O)NC(=O)[C@H](CO)NC1=O, also called 1-14; Ex. No. 1-14) [Ac*-F-V-S-T-T-B-(N-Me)A-(3,4-diCl)F-(N-Me)A-D-R-P-C*-G-NH2] ?
1.2

Origin of values: patent US20220024981A1
